- tested-on: Muscarinic acetylcholine receptor M2 (Homo sapiens, UniProt P08172)
- Sequence (P08172 whole entry): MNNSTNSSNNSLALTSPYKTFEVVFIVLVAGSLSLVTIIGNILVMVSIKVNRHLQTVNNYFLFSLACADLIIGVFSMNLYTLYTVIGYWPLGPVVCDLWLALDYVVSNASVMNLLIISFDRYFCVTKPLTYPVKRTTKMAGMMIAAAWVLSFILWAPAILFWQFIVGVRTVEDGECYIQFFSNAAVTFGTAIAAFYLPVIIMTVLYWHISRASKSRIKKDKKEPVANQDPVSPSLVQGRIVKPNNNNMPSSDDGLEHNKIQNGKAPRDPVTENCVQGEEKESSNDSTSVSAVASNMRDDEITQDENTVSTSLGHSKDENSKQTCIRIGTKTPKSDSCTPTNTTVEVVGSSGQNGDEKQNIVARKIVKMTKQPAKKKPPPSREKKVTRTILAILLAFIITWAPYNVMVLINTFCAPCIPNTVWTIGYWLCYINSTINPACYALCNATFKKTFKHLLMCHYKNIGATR
- Type: functional, cell-based
# AC50 per entry
assay-endpoint: AC50

INSERT INTO measurements (compound, tested_on, result) VALUES
  ('CNC(=O)Oc1ccc2c(c1)[C@]1(C)CCN(C)[C@@H]1N2C', 'Muscarinic acetylcholine receptor M2 (Homo sapiens, UniProt P08172)', '> 30 µM'),
  ('O=C(O)c1cc(O)c2c3nc4ccccc4oc-3cc(=O)c2n1', 'Muscarinic acetylcholine receptor M2 (Homo sapiens, UniProt P08172)', '> 30 µM'),
  ('N=C(N)c1ccc2cc(OC(=O)c3ccc(N=C(N)N)cc3)ccc2c1', 'Muscarinic acetylcholine receptor M2 (Homo sapiens, UniProt P08172)', '12 µM'),
  ('CN(C)c1cc(NC(=O)CNC(C)(C)C)c(O)c2c1C[C@H]1C[C@H]3[C@H](N(C)C)C(O)=C(C(N)=O)C(=O)[C@@]3(O)C(O)=C1C2=O', 'Muscarinic acetylcholine receptor M2 (Homo sapiens, UniProt P08172)', '> 30 µM'),
  ('Cc1ccc(=O)n(-c2ccccc2)c1', 'Muscarinic acetylcholine receptor M2 (Homo sapiens, UniProt P08172)', '> 30 µM'),
  ('CCn1cc(C(=O)O)c(=O)c2cc(F)c(N3CCNCC3)nc21', 'Muscarinic acetylcholine receptor M2 (Homo sapiens, UniProt P08172)', '> 10 µM'),
  ('CC[C@H]1OC(=O)[C@H](C)[C@@H](O[C@H]2C[C@@](C)(OC)[C@@H](O)[C@H](C)O2)[C@H](C)[C@@H](O[C@@H]2O[C@H](C)C[C@H](N(C)C)[C@H]2O)[C@](C)(O)C[C@@H](C)/C(=N\OCOCCOC)[C@H](C)[C@@H](O)[C@]1(C)O', 'Muscarinic acetylcholine receptor M2 (Homo sapiens, UniProt P08172)', '> 30 µM'),
  ('CC1(C)C(C=C(Cl)Cl)C1C(=O)OCc1cccc(Oc2ccccc2)c1 (stereo not drawn)', 'Muscarinic acetylcholine receptor M2 (Homo sapiens, UniProt P08172)', '> 10 µM'),
  ('CCSc1ccc2c(c1)N(CCCN1CCN(C)CC1)c1ccccc1S2', 'Muscarinic acetylcholine receptor M2 (Homo sapiens, UniProt P08172)', '> 10 µM'),
  ('CCC(=O)O[C@@H](O[P@](=O)(CCCCc1ccccc1)CC(=O)N1C[C@H](C2CCCCC2)C[C@H]1C(=O)O)C(C)C', 'Muscarinic acetylcholine receptor M2 (Homo sapiens, UniProt P08172)', '> 30 µM'),
  ('O=C1CN=C(c2ccccc2)c2cc(Cl)ccc2N1', 'Muscarinic acetylcholine receptor M2 (Homo sapiens, UniProt P08172)', '> 10 µM'),
  ('CC(C)(C)NCC(O)c1cc(Cl)c(N)c(Cl)c1 (stereo not drawn)', 'Muscarinic acetylcholine receptor M2 (Homo sapiens, UniProt P08172)', '> 30 µM'),
  ('Cc1cc(CC(=O)O)n(C)c1C(=O)c1ccc(Cl)cc1 [ZOMEPIRAC]', 'Muscarinic acetylcholine receptor M2 (Homo sapiens, UniProt P08172)', '> 30 µM'),
  ('N=C(N)NCCCCCCC(=O)NC(O)C(=O)NCCCCNCCCN (stereo not drawn)', 'Muscarinic acetylcholine receptor M2 (Homo sapiens, UniProt P08172)', '> 30 µM'),
  ('N[C@H](Cc1cc(I)c(Oc2cc(I)c(O)c(I)c2)c(I)c1)C(=O)O', 'Muscarinic acetylcholine receptor M2 (Homo sapiens, UniProt P08172)', '> 10 µM'),
  ('CCCOC(C(=O)OC1CCN(C)CC1)(c1ccccc1)c1ccccc1', 'Muscarinic acetylcholine receptor M2 (Homo sapiens, UniProt P08172)', '3.6 µM'),
  ('Cc1ccc(NC(=O)C2(c3ccc4c(c3)OC(F)(F)O4)CC2)nc1-c1cccc(C(=O)O)c1', 'Muscarinic acetylcholine receptor M2 (Homo sapiens, UniProt P08172)', '> 30 µM'),
  ('CCCCCCNC(=O)n1cc(F)c(=O)[nH]c1=O', 'Muscarinic acetylcholine receptor M2 (Homo sapiens, UniProt P08172)', '> 30 µM');
